Origin of the recorded values: PubChem BioAssay AID179

# System: CEM cells HIV-1 protection, formazan growth assay
# testName: NCI AIDS Antiviral Assay
# particulars: measured here: growth of uninfected CEM cells
pIC50: −log10 of the molar value.
Some compounds, each annotated with its measured pIC50.

Some compounds with recorded pIC50:
- compound: "CCCCCCCCCc1ccc(Oc2ccc3c(c2)-c2nc-3nc3[nH]c(nc4nc(nc5[nH]c(n2)c2ccc(Oc6ccc(CCCCCCCCC)cc6)cc52)-c2cc(Oc5ccc(CCCCCCCCC)cc5)ccc2-4)c2ccc(Oc4ccc(CCCCCCCCC)cc4)cc32)cc1"
  pIC50: "< 4.87"
- compound: "Nc1ncnc2c1ncn2[C@H]1C(CO)[C@@H](CO)C12SCCCS2 (some centres undefined)"
  pIC50: "< 3.72"
- compound: "CC(=O)C1C(=O)NC(=O)C1=O (centres undefined)"
  pIC50: "< 2.79"

Next compound, pIC50 to be filled in.
Lab note: need pIC50 for Cn1c2cc(O)cc(O)c2c(=O)c2c([N+](=O)[O-])cccc21 on CEM cells HIV-1 protection, formazan growth assay, anyone have it?
< 3.85

---

# System: CEM cells HIV-1 protection, formazan growth assay
# testName: NCI AIDS Antiviral Assay
# particulars: measured here: growth of uninfected CEM cells
quantity: IC50 (µM)
Write the number in µM without appending the unit.

- compound: "COc1cc(C2c3cc4c(cc3C(O)[C@H]3COC(=O)C23)OCO4)cc(OC)c1O (some centres not stated)"
  system: "CEM cells HIV-1 protection, formazan growth assay"
  quantity: "IC50"
  reported: 0.0631

Next compound, IC50 to be filled in.
Requested read-out: IC50. Entry: c1cc2[nH]snc2c2cncc12
11.2

---

Some molecules, each annotated with its measured IC50.
# Tested on: CEM cells HIV-1 protection, formazan growth assay
# testName: NCI AIDS Antiviral Assay
# particulars: measured here: growth of uninfected CEM cells
Write the number in µM without appending the unit.

- itemSmiles: "O=c1cc(NNc2cccc(Cl)c2)[nH]c(=O)[nH]1"
  unitString: "µM"
  IC50: 1.05

Lab note: need IC50 for CCCCNC(=S)/C(C#N)=C1\Nc2ccccc2O1 on CEM cells HIV-1 protection, formazan growth assay, anyone have it?
32.4

Try this molecule too: Cn1cnc([N+](=O)[O-])c1Sc1nnnn1-c1ccccc1
10.7

---

# Tested on: CEM cells HIV-1 protection, formazan growth assay
# testName: NCI AIDS Antiviral Assay
pEC50: −log10 of the molar value.
quantity: pEC50

Some compounds with recorded pEC50:
- compound: "C[C@@]12[C@H]3CC[C@@H]1[C@H](O)C(=O)N2CC3"
  pEC50: "< 3.70"
- compound: "CCCCc1c2c(nc3c1CCC/C3=C\\c1ccccc1)C(=O)CCC2"
  pEC50: "< 5.24"
- compound: "COc1ccccc1C1(c2ccccc2OC)OC(=O)c2ccccc21"
  pEC50: "< 3.70"

Requested read-out: pEC50. Entry: COc1cccc(C2SC(N)=Nc3c2c(C)nn3C(=O)c2ccccc2O)c1 (centres undefined)
< 5.70

Try this compound too: O=C(O)CCCCCCCCCCCC(=O)O
< 3.83

Try this compound too: O=CC(O)C(O)C(O)C(O)CON1C[C@@H](O)C(O)[C@@H](O)C1 (some centres undefined)
< 3.70

Try this compound too: NC(CCCCNC(=O)C(Cc1ccccc1)NC(=O)OCc1ccccc1)C(=O)NC(CCCCNC(=O)C(Cc1ccccc1)NC(=O)OCc1ccccc1)C(=O)NC(CCCCNC(=O)C(Cc1ccccc1)NC(=O)OCc1ccccc1)C(=O)NC(CCCCNC(=O)C(Cc1ccccc1)NC(=O)OCc1ccccc1)C(=O)NC(CCCCNC(=O)C(Cc1ccccc1)NC(=O)OCc1ccccc1)C(=O)NC(CCCCNC(=O)C(Cc1ccccc1)NC(=O)OCc1ccccc1)C(=O)O (centres undefined)
< 4.30

Try this compound too: O=c1[nH]c(-c2ccc(-c3nc4cc([N+](=O)[O-])ccc4c(=O)[nH]3)cc2)nc2cc([N+](=O)[O-])ccc12
< 5.10

Try this compound too: CN(C)CCCN1c2ccccc2Sc2ccc(C(F)(F)F)cc21
< 3.70

Try this compound too: Oc1ccc(SCc2cc(O)c(O)c(O)c2)cc1
< 3.70
